Each entry below carries its recorded IC50.
target: Calcium-dependent protein kinase 1 (Plasmodium falciparum, UniProt P62344); experiment: MMV: CDPK1 Protein kinase inhibition assay using recombinant PfCDPK1, syntide 2 peptide substrate, ATP and KinaseGlo to measure % inhibition at 1 uM MMV box compound.
Sequence (P62344 whole entry): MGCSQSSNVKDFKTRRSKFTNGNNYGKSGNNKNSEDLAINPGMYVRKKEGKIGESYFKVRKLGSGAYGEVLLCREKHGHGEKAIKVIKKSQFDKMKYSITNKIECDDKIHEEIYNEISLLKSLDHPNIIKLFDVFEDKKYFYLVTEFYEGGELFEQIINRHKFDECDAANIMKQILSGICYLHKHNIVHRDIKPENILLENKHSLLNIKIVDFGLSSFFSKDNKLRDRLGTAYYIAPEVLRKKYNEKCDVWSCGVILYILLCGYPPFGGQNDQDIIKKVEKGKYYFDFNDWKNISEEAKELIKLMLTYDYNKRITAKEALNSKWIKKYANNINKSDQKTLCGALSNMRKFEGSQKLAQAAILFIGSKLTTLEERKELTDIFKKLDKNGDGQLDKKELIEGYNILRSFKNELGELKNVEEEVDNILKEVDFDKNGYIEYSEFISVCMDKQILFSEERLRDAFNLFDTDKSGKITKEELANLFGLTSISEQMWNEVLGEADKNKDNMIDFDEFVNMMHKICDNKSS
quantity.kind: IC50

{"compound": "CC1=C(CC(=O)c2cccc([N+](=O)[O-])c2)C(=O)c2ccccc2C1=O", "tested.system": "Calcium-dependent protein kinase 1 (Plasmodium falciparum, UniProt P62344)", "readout.value": "> 1 µM"}
{"compound": "CCN(CC)CCn1c(=N)n(CC(O)c2ccc(Cl)c(Cl)c2)c2ccccc21 (centres undefined)", "tested.system": "Calcium-dependent protein kinase 1 (Plasmodium falciparum, UniProt P62344)", "readout.value": "> 1 µM"}
{"compound": "COc1cc(C(=O)Nc2nc3c(cc4c5c(cccc53)CC4)s2)cc(OC)c1OC", "tested.system": "Calcium-dependent protein kinase 1 (Plasmodium falciparum, UniProt P62344)", "readout.value": "> 1 µM"}
{"compound": "COc1ccc2sc(N(Cc3cccnc3)C(=O)c3ccc(C#N)cc3)nc2c1", "tested.system": "Calcium-dependent protein kinase 1 (Plasmodium falciparum, UniProt P62344)", "readout.value": "> 1 µM"}
{"compound": "Cc1ccc(N2C(=O)C3C(C2=O)C2(c4ccccc4)C(=O)C3(c3ccccc3)C(c3ccccc3)=C2c2ccccc2)cc1 (centres undefined)", "tested.system": "Calcium-dependent protein kinase 1 (Plasmodium falciparum, UniProt P62344)", "readout.value": "> 1 µM"}
{"compound": "O=c1nc(C=Cc2ccc(Br)cc2)oc2ccccc12", "tested.system": "Calcium-dependent protein kinase 1 (Plasmodium falciparum, UniProt P62344)", "readout.value": "> 1 µM"}
{"compound": "COc1ccc(C(=O)C(CCC(CNC(C)(C)C)C(=O)c2ccc(OC)cc2)CNC(C)(C)C)cc1 (centres undefined)", "tested.system": "Calcium-dependent protein kinase 1 (Plasmodium falciparum, UniProt P62344)", "readout.value": "> 1 µM"}
{"compound": "CCOc1ccccc1CN1CCc2nc3cc(C(C)(C)C)nn3c(O)c2C1", "tested.system": "Calcium-dependent protein kinase 1 (Plasmodium falciparum, UniProt P62344)", "readout.value": "> 1 µM"}
{"compound": "CC(C)(C)c1ccc(C2CC3=Nc4ccccc4N(C(=O)c4ccccc4Cl)C(c4ccc(F)cc4)C3=C(O)C2)cc1 (centres undefined)", "tested.system": "Calcium-dependent protein kinase 1 (Plasmodium falciparum, UniProt P62344)", "readout.value": "> 1 µM"}

* * *

Target: Calcium-dependent protein kinase 4 (Plasmodium falciparum (isolate 3D7), UniProt Q8IBS5)
Sequence (Q8IBS5 whole entry): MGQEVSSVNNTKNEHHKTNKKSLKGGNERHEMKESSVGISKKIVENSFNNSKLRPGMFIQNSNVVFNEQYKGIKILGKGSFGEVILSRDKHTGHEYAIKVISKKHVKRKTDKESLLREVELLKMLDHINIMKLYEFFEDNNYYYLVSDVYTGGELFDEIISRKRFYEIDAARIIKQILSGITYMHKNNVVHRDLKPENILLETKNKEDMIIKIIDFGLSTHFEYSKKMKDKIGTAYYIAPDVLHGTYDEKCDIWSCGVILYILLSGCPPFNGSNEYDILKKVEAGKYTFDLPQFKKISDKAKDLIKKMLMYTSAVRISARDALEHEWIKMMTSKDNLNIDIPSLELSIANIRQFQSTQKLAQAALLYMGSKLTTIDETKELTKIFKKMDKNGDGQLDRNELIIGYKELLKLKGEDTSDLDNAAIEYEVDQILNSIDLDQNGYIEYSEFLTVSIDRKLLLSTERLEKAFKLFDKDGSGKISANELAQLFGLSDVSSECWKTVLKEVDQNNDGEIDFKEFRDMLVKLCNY
Assay: MMV: CDPK4 Protein kinase inhibition assay using recombinant PfCDPK4, syntide2 peptide substrate, ATP and KinaseGlo to measure % inhibition at 1 uM MMV box compound.

{"molecule": "CCCCNc1nc(NC(C)(C)C)nc(NC(C)(C)C)n1", "IC50": "> 1000 nM"}
{"molecule": "COc1ccc2nc(C)cc(Nc3ccc(Cl)cc3)c2c1", "IC50": "> 1000 nM"}
{"molecule": "CCn1c(SCC(=O)Nc2cc(C(F)(F)F)ccc2Cl)nc2ccccc2c1=O", "IC50": "> 1000 nM"}
{"molecule": "CCOc1ccc2c(c1)CN(Cc1ccc(Cl)cc1)CO2", "IC50": "> 1000 nM"}
{"molecule": "Cc1ccnc(NC(c2cccc(OCc3ccccc3)c2)c2ccc3cccnc3c2O)c1 (stereo unspecified)", "IC50": "> 1000 nM"}
{"molecule": "CCN(CC)c1ccc(NC(=O)c2cccs2)cc1", "IC50": "> 1000 nM"}
{"molecule": "CN1CCN(c2nc(Nc3ccc(O)cc3)nc3ccccc23)CC1", "IC50": "> 1000 nM"}
{"molecule": "Cc1ccc2cc3c(N)c4c(C)ccc(C)c4nc3nc2c1", "IC50": "> 1000 nM"}
{"molecule": "O=C(Cc1ccccc1)NC(c1ccc(Cl)cc1)c1c(O)ccc2ccccc12 (stereo unspecified)", "IC50": "> 1000 nM"}
{"molecule": "O=[N+]([O-])c1ccc(C=NNc2nc3ccccc3[nH]2)cc1", "IC50": "> 1000 nM"}
{"molecule": "COc1ccc(-c2cc(=O)oc3c4c(ccc23)OCN(Cc2ccc(F)cc2)C4)cc1", "IC50": "> 1000 nM"}

* * *

biological target: Calcium-dependent protein kinase 1 (Plasmodium falciparum, UniProt P62344); assay: MMV: CDPK1 Protein kinase inhibition assay using recombinant PfCDPK1, syntide 2 peptide substrate, ATP and KinaseGlo to measure % inhibition at 1 uM MMV box compound.
quantity.kind: IC50

{"compound": "O=C(NCc1ccco1)C1CCN(S(=O)(=O)c2ccc(Cl)cc2)CC1", "tested.system": "Calcium-dependent protein kinase 1 (Plasmodium falciparum, UniProt P62344)", "readout.value": "> 1000 nM"}
{"compound": "CN(C)c1ccc(C=Cc2nc(=O)c3ccccc3o2)cc1", "tested.system": "Calcium-dependent protein kinase 1 (Plasmodium falciparum, UniProt P62344)", "readout.value": "> 1000 nM"}
{"compound": "CCOC(=O)c1c(C)n(-c2ccccc2)c2ccc(OC(=O)c3cc(OC)c(OC)c(OC)c3)cc12", "tested.system": "Calcium-dependent protein kinase 1 (Plasmodium falciparum, UniProt P62344)", "readout.value": "> 1000 nM"}
{"compound": "Oc1ccc2ccccc2c1CNc1nc2ccccc2[nH]1", "tested.system": "Calcium-dependent protein kinase 1 (Plasmodium falciparum, UniProt P62344)", "readout.value": "> 1000 nM"}
{"compound": "CCOC(=O)c1cnc2ccc(Cl)cc2c1NCCCN(C)C", "tested.system": "Calcium-dependent protein kinase 1 (Plasmodium falciparum, UniProt P62344)", "readout.value": "> 1000 nM"}
{"compound": "Cc1cc(NC(=O)c2ccc(-c3ccccc3)cc2)no1", "tested.system": "Calcium-dependent protein kinase 1 (Plasmodium falciparum, UniProt P62344)", "readout.value": "> 1000 nM"}
{"compound": "CCOc1c(Cl)cc(CNC(C)C(O)c2ccccc2)cc1OC (stereo unspecified)", "tested.system": "Calcium-dependent protein kinase 1 (Plasmodium falciparum, UniProt P62344)", "readout.value": "> 1000 nM"}
{"compound": "CC(O)(c1ccc(Cl)cc1)C(CN1CCCCC1)c1ccccc1 (stereo unspecified)", "tested.system": "Calcium-dependent protein kinase 1 (Plasmodium falciparum, UniProt P62344)", "readout.value": "> 1000 nM"}
{"compound": "CCn1nc(-c2ccc(C(=O)OC)cc2)nc2c(=O)n(C)c(=O)nc1-2", "tested.system": "Calcium-dependent protein kinase 1 (Plasmodium falciparum, UniProt P62344)", "readout.value": "> 1000 nM"}
{"compound": "CCCCc1c(CCC)c(=N)c2ccccc2n1C", "tested.system": "Calcium-dependent protein kinase 1 (Plasmodium falciparum, UniProt P62344)", "readout.value": "> 1000 nM"}
{"compound": "Cc1cc(=O)oc2c1ccc1oc(C(=O)c3ccccc3)c(C)c12", "tested.system": "Calcium-dependent protein kinase 1 (Plasmodium falciparum, UniProt P62344)", "readout.value": "> 1000 nM"}

* * *

Each entry below carries its recorded pIC50.
target: Calcium-dependent protein kinase 1 (Plasmodium falciparum); assay: MMV: CDPK1 Protein kinase inhibition assay using recombinant PfCDPK1, syntide 2 peptide substrate, ATP and KinaseGlo to measure % inhibition at 1 uM MMV box compound.
pIC50: −log10 of the molar value.
quantity.kind: pIC50

{"molecule": "Clc1ccc2c(N3CCCC3)ccnc2c1", "tested.system": "Calcium-dependent protein kinase 1 (Plasmodium falciparum)", "readout.value": "< 6.00"}
{"molecule": "CC1CCN(Cc2ccc(NC(=O)c3cc4ccc5cccnc5c4[nH]3)cc2)CC1", "tested.system": "Calcium-dependent protein kinase 1 (Plasmodium falciparum)", "readout.value": "< 6.00"}
{"molecule": "Oc1c2c(nc3cc(-c4ccccc4)nn13)CCCC2", "tested.system": "Calcium-dependent protein kinase 1 (Plasmodium falciparum)", "readout.value": "< 6.00"}
{"molecule": "OC(CNC1CCCC1)Cn1c2ccccc2c2ccccc21 (stereo unspecified)", "tested.system": "Calcium-dependent protein kinase 1 (Plasmodium falciparum)", "readout.value": "< 6.00"}
{"molecule": "CCN(CC)CCCNc1nc(-c2ccc(Cl)cc2)nc2ccccc12", "tested.system": "Calcium-dependent protein kinase 1 (Plasmodium falciparum)", "readout.value": "< 6.00"}
{"molecule": "COc1ccc(-c2cc(=O)oc3c4c(ccc23)OCN(Cc2ccc(F)cc2)C4)cc1", "tested.system": "Calcium-dependent protein kinase 1 (Plasmodium falciparum)", "readout.value": "< 6.00"}
{"molecule": "CCCCCCn1c(=N)n(CC(O)COc2cccc(C)c2)c2ccccc21 (stereo unspecified)", "tested.system": "Calcium-dependent protein kinase 1 (Plasmodium falciparum)", "readout.value": "< 6.00"}
{"molecule": "Cc1ccc(CN2CCC(C(=O)Nc3ccc(-c4cc5ccccc5[nH]4)cc3)CC2)o1", "tested.system": "Calcium-dependent protein kinase 1 (Plasmodium falciparum)", "readout.value": "< 6.00"}
{"molecule": "COc1ccc(C2c3ccc4ccccc4c3Oc3ncn(CCCn4ccnc4)c(=N)c32)cc1OC (stereo unspecified)", "tested.system": "Calcium-dependent protein kinase 1 (Plasmodium falciparum)", "readout.value": "< 6.00"}
{"molecule": "COC(=O)c1ccc(C2C3=C(O)CC(c4ccc(F)cc4)CC3=Nc3ccccc3N2C(=O)c2ccccc2)cc1 (stereo unspecified)", "tested.system": "Calcium-dependent protein kinase 1 (Plasmodium falciparum)", "readout.value": "< 6.00"}
{"molecule": "OC1=C2C(=Nc3ccccc3SC2c2ccc(Br)cc2)c2ccccc21 (stereo unspecified)", "tested.system": "Calcium-dependent protein kinase 1 (Plasmodium falciparum)", "readout.value": "< 6.00"}
